Sourced from patent US20240101572A1

- targetDesc: full-length human PLD2 (Homo sapiens (Human))
- Sequence (O14939 whole entry): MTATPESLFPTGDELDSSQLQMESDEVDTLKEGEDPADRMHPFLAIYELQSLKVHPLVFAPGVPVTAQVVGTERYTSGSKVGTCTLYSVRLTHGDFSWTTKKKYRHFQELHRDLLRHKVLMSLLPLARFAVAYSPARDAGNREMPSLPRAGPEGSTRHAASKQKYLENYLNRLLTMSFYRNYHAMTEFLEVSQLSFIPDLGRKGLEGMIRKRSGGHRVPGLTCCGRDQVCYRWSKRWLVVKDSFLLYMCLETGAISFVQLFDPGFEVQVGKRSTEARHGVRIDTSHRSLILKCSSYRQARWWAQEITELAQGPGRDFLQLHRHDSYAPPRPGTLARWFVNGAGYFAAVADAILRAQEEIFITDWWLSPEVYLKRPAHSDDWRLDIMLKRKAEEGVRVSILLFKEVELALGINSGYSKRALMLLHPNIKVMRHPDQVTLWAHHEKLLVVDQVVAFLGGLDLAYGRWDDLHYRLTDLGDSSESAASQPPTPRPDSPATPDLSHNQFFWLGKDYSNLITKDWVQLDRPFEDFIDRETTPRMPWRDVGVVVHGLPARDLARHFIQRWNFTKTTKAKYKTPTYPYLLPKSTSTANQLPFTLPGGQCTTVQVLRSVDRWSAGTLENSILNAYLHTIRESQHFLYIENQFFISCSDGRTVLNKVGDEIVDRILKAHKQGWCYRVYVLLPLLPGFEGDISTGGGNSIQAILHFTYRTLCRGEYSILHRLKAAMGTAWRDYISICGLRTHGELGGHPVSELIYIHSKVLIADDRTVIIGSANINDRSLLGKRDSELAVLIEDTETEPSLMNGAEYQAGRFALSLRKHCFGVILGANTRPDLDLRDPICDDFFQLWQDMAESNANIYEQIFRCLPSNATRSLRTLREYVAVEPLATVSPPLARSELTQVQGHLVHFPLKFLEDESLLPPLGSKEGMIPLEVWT
- assaySummary: Evaluation of human PLD2 enzyme inhibitory activity (Amplex Red / choline oxidase fluorescence)
- Type: biochemical
- conditionLabel: full-length human PLD2 enzyme; read-out: PLD2 IC50
valueKind: pIC50
The value called pIC50 is obtained by taking minus log10 of the concentration in mol/L.

1) Cc1cc(C(=O)N[C@@H](C)CN2CCC3(CC2)OC(=O)NN=C3c2ccc(Br)cc2C(F)(F)F)[nH]n1
7.66
2) C[C@@H](C[C@H]1CC[C@]2(CC1)OC(=O)NN=C2c1ccc(F)cc1Br)NC(=O)C1(O)CC1
6.86
3) CNC(=O)C(=O)N[C@@H](C)CN1CCC2(CC1)OC(=O)NN=C2c1ccc(C#N)cc1Br
7.89
4) COC(=O)/C=C/C(=O)N[C@@H](C)CN1CCC2(CC1)OC(=O)NN=C2c1cc(C#N)ccc1Br
7.55

// fetch full-length human PLD2 (Homo sapiens (Human)) pIC50 for `CNC(=O)C(=O)N[C@@H](C)CN1CCC2(CC1)OC(=O)NN=C2c1cn(C)nc1I` 6.82

====

- targetDesc: full-length human PLD1 (Homo sapiens (Human))
- assaySummary: Evaluation of human PLD1 enzyme inhibitory activity (Amplex Red / choline oxidase fluorescence)
- Assay type: biochemical
- conditionLabel: full-length human PLD1 enzyme; read-out: PLD1 IC50
Grouping by measured IC50 is done with the following cut points: low group (below 20 nM), middle group (20 nM to below 40 nM), high group (40 nM or more)

1) CNC(=O)N[C@@H](C)C[C@H]1CC[C@]2(CC1)OC(=O)NN=C2c1ccc(F)cc1I [Example 183]
high group

For the record Cc1cc(C(=O)N[C@@H](C)C[C@H]2CC[C@]3(CC2)OC(=O)NN=C3c2cccc(C#N)c2Br)[nH]n1 [Example 317] , report the class its IC50 corresponds to. high group

Consider next the molecule COc1cc(C)c(C2=NNC(=O)O[C@]23CC[C@@H](C[C@H](C)NC(=O)N2CCc4ncccc4C2)CC3)cn1 [Example 264] in the same way. middle group

Consider next the molecule Cc1cc(C(=O)N[C@@H](C)C[C@H]2CC[C@]3(CC2)OC(=O)NN=C3c2cnc(N3CCC(F)(F)C3)cc2Cl)[nH]n1 [Example 224] in the same way. low group

Consider next the molecule Cc1ccncc1C1=NNC(=O)O[C@]12CC[C@@H](C[C@H](C)NC(=O)c1cc(Cl)no1)CC2 [Example 113] in the same way. low group

Consider next the molecule CNC(=O)C(=O)N[C@@H](C)CN1CC2CC1CC21OC(=O)NN=C1c1ccc(F)cc1Br (mixture of isomers) [Example 2-005] in the same way. high group

Consider next the molecule Cc1cc(C(=O)N[C@@H](C)C[C@H]2CC[C@]3(CC2)OC(=O)NN=C3c2cnc(N3C[C@H]4C[C@@H]3CO4)cc2C)[nH]n1 [Example 249] in the same way. middle group

Consider next the molecule CNC(=O)C(=O)N[C@@H](C)C[C@H]1CC[C@]2(CC1)OC(=O)NN=C2c1cc(OCC(F)(F)F)ccc1Br [Example 296] in the same way. low group

Consider next the molecule C[C@@H](CN1CCC2(CC1)OC(=O)NN=C2c1ccc(F)cc1Cl)NC(=O)c1cc2cc(F)ccc2o1 [Example 91] in the same way. middle group

====

- targetDesc: full-length human PLD1 (Homo sapiens (Human), UniProt Q13393)
- Sequence (Q13393 other isoform, or with tags, fused parts or gaps): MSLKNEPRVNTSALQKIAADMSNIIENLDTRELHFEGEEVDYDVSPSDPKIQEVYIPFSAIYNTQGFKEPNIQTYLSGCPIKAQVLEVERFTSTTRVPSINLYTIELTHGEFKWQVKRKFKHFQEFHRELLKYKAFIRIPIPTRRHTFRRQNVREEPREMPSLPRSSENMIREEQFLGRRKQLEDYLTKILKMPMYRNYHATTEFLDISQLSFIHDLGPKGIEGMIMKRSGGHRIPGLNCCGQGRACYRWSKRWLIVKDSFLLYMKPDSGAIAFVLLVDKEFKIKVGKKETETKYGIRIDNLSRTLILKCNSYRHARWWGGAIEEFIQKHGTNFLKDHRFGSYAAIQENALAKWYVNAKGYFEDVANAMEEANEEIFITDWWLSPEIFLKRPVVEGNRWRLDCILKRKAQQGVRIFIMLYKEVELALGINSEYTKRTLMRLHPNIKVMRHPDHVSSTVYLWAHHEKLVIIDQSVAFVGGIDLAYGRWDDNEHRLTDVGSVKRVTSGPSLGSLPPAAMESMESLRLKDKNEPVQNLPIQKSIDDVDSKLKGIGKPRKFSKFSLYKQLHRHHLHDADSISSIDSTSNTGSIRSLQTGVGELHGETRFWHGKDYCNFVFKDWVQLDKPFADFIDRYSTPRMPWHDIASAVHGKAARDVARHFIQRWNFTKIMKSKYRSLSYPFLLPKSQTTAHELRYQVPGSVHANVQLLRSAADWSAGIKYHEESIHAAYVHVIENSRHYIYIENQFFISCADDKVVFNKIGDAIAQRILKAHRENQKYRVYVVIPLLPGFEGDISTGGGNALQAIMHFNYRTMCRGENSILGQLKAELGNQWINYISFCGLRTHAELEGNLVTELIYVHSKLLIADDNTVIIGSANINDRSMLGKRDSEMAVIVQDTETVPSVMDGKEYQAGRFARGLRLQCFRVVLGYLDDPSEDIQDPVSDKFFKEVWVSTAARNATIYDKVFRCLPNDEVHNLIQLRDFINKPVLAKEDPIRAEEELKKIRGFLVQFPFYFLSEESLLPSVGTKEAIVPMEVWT
- assaySummary: Evaluation of human PLD1 enzyme inhibitory activity (Amplex Red / choline oxidase fluorescence)
- Type: biochemical
- conditionLabel: read-out: inhibition rate of PLD1 at 10 μM compound
valueKind: inhibition at 10 µM (%)
State the answer as a number, implicitly in %.

Example cases with answers are listed next.
1. C[C@@H](C[C@]1(C#N)CC[C@@]2(CC1)OC(=O)NN=C2c1cc(OCC(F)F)ncc1Br)NC(=O)C(=O)NC1CC1
13
2. C[C@@H](CN1CCC2(CC1)OC(=O)NN=C2c1cc(C#N)ccc1Br)NC(=O)/C=C\C(=O)O
32
3. CNC(=O)C(=O)N[C@H](C)C[C@H]1CC[C@@]2(CC1)OC(=O)NN=C2c1cc(C#N)ccc1Br
25

Give the measured inhibition at 10 µM of `CNC(=O)C(=O)N[C@@H](C)C[C@H]1CC[C@]2(CC1)OC(=O)NN=C2c1cnc(C(=O)O)cc1C` . 33

Consider next the compound `C[C@@H](C[C@H]1CC[C@]2(CC1)OC(=O)NN=C2c1ccc(F)cc1Br)NC(=O)OC(C)(C)C` in the same way. 36

Consider next the compound `C[C@@H](C[C@H]1CC[C@]2(CC1)OC(=O)NN=C2c1cc(C#N)ccc1Br)NC(=O)C(=O)O` in the same way. 12

Consider next the compound `CNC(=O)C(=O)N[C@@H](C)C[C@]1(C#N)CC[C@@]2(CC1)OC(=O)NN=C2c1cc(OCC(F)F)ncc1Br` in the same way. 21

====

- targetDesc: full-length human PLD1 (Homo sapiens (Human), UniProt Q13393)
- assaySummary: Evaluation of human PLD1 enzyme inhibitory activity (Amplex Red / choline oxidase fluorescence)
- Format: biochemical
- conditionLabel: full-length human PLD1 enzyme; read-out: PLD1 IC50
valueKind: IC50 (nM)
State the answer as a number, implicitly in nM.

Example cases with answers are listed next.
1. C[C@@H](C[C@H]1CC[C@]2(CC1)OC(=O)NN=C2c1nccn1CC1CC1)NC(=O)c1cc2ccccc2o1
70
2. Cc1cc(F)ccc1C1=NNC(=O)O[C@]12CC[C@@H](C[C@H](C)NC(=O)N1CCCC1)CC2
155

Give the measured IC50 of `CNC(=O)C(=O)N[C@@H](C)C[C@H]1CC[C@]2(CC1)OC(=O)NN=C2c1cc(C(=O)N2CCC(F)(F)C2)ccc1Br` . 17

Consider next the compound `Cc1cc(N2CCOCC2)ccc1C1=NNC(=O)O[C@]12CC[C@@H](C[C@H](C)NC(=O)NC1CC1)CC2` in the same way. 197

Consider next the compound `Cc1cc(C(=O)N[C@@H](C)CN2CCC3(CC2)OC(=O)NN=C3c2ccc(Cl)cc2C)[nH]n1` in the same way. 17

====

Documented inhibition at 10 µM across a set of molecules
- targetDesc: full-length human PLD2 (Homo sapiens (Human))
- assaySummary: Evaluation of human PLD2 enzyme inhibitory activity (Amplex Red / choline oxidase fluorescence)
- Format: biochemical
- conditionLabel: read-out: human PLD2 % inhibition at 10 μM
The reply must contain the numeric value and, after it, the unit.

Example cases with answers are listed next.
1. CNC(=O)C(=O)N[C@H](C)C[C@H]1CC[C@@]2(CC1)OC(=O)NN=C2c1cc(C#N)ccc1Br
30%
2. C[C@@H](C[C@H]1CC[C@]2(CC1)OC(=O)NN=C2c1cc(C#N)ccc1Br)NC(=O)C(=O)O
23%
3. C[C@@H](C[C@]1(C#N)CC[C@@]2(CC1)OC(=O)NN=C2c1cc(OCC(F)F)ncc1Br)NC(=O)C(=O)NC1CC1
28%

Give the measured inhibition at 10 µM of `CNC(=O)C(=O)N[C@@H](C)C[C@]1(C#N)CC[C@@]2(CC1)OC(=O)N(C)N=C2c1cc(C#N)ccc1Br` . 39%

====

- targetDesc: full-length human PLD1 (Homo sapiens (Human))
- assaySummary: Evaluation of human PLD1 enzyme inhibitory activity (Amplex Red / choline oxidase fluorescence)
- Type: biochemical
- conditionLabel: full-length human PLD1 enzyme; read-out: PLD1 IC50
valueKind: pIC50
The value called pIC50 is obtained by taking minus log10 of the concentration in mol/L.

1) [2H]C([2H])([2H])NC(=O)C(=O)N[C@@H](C)C[C@H]1CC[C@]2(CC1)OC(=O)NN=C2c1cc(C#N)ccc1Br
7.85
2) CNC(=O)C(=O)N[C@@H](C)C[C@H]1CC[C@]2(CC1)OC(=O)NN=C2c1ccc(C)cc1C
7.77

Give the measured pIC50 of `Cc1cc(C(=O)NC[C@H](C)N2CCC3(CC2)OC(=O)NN=C3c2ccc(C#N)cc2Br)[nH]n1` . 6.90

Consider next the molecule `CNC(=O)C(=O)N[C@@H](C)C[C@H]1CC[C@]2(CC1)OC(=O)NN=C2c1cnc(C2CC2)cc1Cl` in the same way. 7.89

====

- targetDesc: UniProt Q13393
- assaySummary: Evaluation of human PLD1 enzyme inhibitory activity (Amplex Red / choline oxidase fluorescence)
- Format: biochemical
- conditionLabel: full-length human PLD1 enzyme; read-out: PLD1 IC50
Documented IC50 across a set of compounds
State the answer as a number, implicitly in nM.

Example cases with answers are listed next.
1. C[C@@H](C[C@H]1CC[C@]2(CC1)OC(=O)NN=C2c1ccc(F)cc1Br)NC(=O)C1(O)COC1 [Example 123]
202
2. CNC(=O)C(=O)N[C@@H](C)C[C@H]1CC[C@]2(CC1)OC(=O)NN=C2c1cnc(N2CCOCC2)cc1C [Example 164]
38
3. CNC(=O)C(=O)N[C@@H](C)C[C@H]1CC[C@]2(CC1)OC(=O)NN=C2c1ccc(Br)cc1C [Example 161]
20
4. Cc1cc(C(=O)N[C@@H](C)C[C@H]2CC[C@]3(CC2)OC(=O)NN=C3c2cc(OCC(F)(F)F)ccc2Br)[nH]n1 [Example 298]
15
5. CNC(=O)C(=O)N[C@@H](C)C[C@]1(C#N)CC[C@@]2(CC1)OC(=O)NN=C2c1cc(C(F)(F)F)ccc1Br [Example 2-066]
15
6. Cc1cc(Br)ccc1C1=NNC(=O)O[C@]12CC[C@@H](C[C@H](C)NC(=O)NC1CC1)CC2 [Example 210]
296

Consider now this further compound.
Give the measured IC50 of CNC(=O)C(=O)N[C@@H](C)C[C@H]1CC[C@]2(CC1)OC(=O)NN=C2c1cnc(N2CC(C)C2)cc1C [Example 182] . 19
